tested on: Tyrosine-protein kinase ABL1 (Homo sapiens), P00519 [H396P]; settings: at 0.1 µM
The reader will find reported inhibition values listed item by item below.
Could you give me the number in %? Just the number is fine.

These recorded examples may help you get a feel for the data.
{"Molecule": "COc1cc2ncn(-c3cc(O[C@H](C)c4ccccc4Cl)c(C(N)=O)s3)c2cc1OC", "inhibition (%)": 10.7}
{"Molecule": "CC1=C(C(=O)Nc2ccc3[nH]ncc3c2)C(c2ccc3ccccc3c2)CC(=O)N1 (stereo not drawn)", "inhibition (%)": 3.48}
{"Molecule": "COc1ccc(-c2coc3ncnc(N)c23)cc1", "inhibition (%)": 5.34}
{"Molecule": "Cc1cc(O)cc(C)c1/C=C/c1cncc(-c2nn[nH]n2)c1", "inhibition (%)": 21.5}
{"Molecule": "CS(=O)(=O)Nc1ccc(N/C=C2\\C(=O)Nc3ccccc32)cc1", "inhibition (%)": -0.26}

Noted for `Nc1ncnc2occ(-c3ccc(NC(=O)Nc4cc(C(F)(F)F)cc(C(F)(F)F)c4)cc3)c12` : its inhibition reads 18.5

Noted for `COc1cc2c(cc1Nc1nc(N3CCc4ccccc43)c3cc[nH]c3n1)N(C(=O)CN(C)C)CC2` : its inhibition reads 0.54

Noted for `CC(C)=Cc1cccc2c1/C(=N/Nc1ccc(S(N)(=O)=O)cc1)C(=O)N2` : its inhibition reads 2.39

Noted for `COc1cc2ncn(-c3cc(O[C@@H](C)c4ccccc4Cl)c(C(N)=O)s3)c2cc1OC` : its inhibition reads 9.2

Noted for `Fc1cccc(COc2ccc(Nc3ncnc4cc(-c5ccc[nH]5)sc34)cc2Cl)c1` : its inhibition reads 3.38

Noted for `NCc1ccc(-c2nc(-c3ccc(Cl)c(O)c3)c(-c3ccncc3)[nH]2)cc1` : its inhibition reads 9.07

Noted for `CCn1c(-c2nonc2N)nc2ccncc21` : its inhibition reads -0.24

Noted for `CCn1c(-c2nonc2N)nc2c(C#CC(C)(C)O)nc(CN3CCCC3)cc21` : its inhibition reads 0.09

Noted for `[O-][S+]1CCN(Cc2ccc(-c3ccc4ncnc(Nc5ccc(OCc6ccccc6)c(F)c5)c4c3)o2)CC1` : its inhibition reads 2.03

Noted for `NS(=O)(=O)c1ccc(N/N=C2\C(=O)Nc3ccc(C(=O)NCCc4c[nH]cn4)cc32)cc1` : its inhibition reads 3.97

Noted for `O=C1NC(=O)C(c2ccc(Cl)cc2)=C1Nc1ccc(Cl)c(C(=O)O)c1` : its inhibition reads -0.65

Every entry's value here was drawn from ChEMBL document CHEMBL1961873.
